Cited source for all entries: the supplement of paper PMC3334620

# test-system: Msn1 (UniProt P22148)
# Sequence: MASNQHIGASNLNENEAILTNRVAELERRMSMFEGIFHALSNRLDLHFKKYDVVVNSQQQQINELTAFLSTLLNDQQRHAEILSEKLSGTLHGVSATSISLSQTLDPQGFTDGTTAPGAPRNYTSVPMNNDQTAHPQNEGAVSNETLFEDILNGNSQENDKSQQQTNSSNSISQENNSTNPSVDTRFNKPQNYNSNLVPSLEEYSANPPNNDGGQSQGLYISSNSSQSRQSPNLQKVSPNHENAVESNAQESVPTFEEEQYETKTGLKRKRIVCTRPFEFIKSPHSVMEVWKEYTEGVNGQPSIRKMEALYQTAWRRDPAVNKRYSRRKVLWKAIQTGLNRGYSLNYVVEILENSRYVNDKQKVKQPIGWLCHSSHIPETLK
# test-summary: PBM E-score (8-mer binding enrichment) (E-score (-0.5 to 0.5)); higher = stronger / more preferred TF binding
# stated-conditions: protein concentration: 200 nM; construct: GST-full length
The full ranking holds about 33,000 sequences; the median of “E-score (-0.5 to 0.5)” is about -0.013, and the highest 2% start at about 0.3. Shown is part of a subset that was picked to be rich in the highest values.
Can you tell me PBM E-score for the items I'm about to list?
One number for each entry.

Solved cases (5 shown):
sequence-text	PBM E-score
ATTTGTTG	0.177
AGTCGCTA	-0.0278
TATGTGAA	-0.121
GGAGAACA	0.0888
ACCGACAA	0.268

Look at each sequence and report its PBM E-score.
1. CGATGAGC
2. AATTGGAC
3. CGCTATAC

Data returned:
-0.17
0.342
-0.194

Look at each sequence and report its PBM E-score.
1. GGGGCCAC
2. AGTTGTCG
3. AACCGACC
4. CTTTGTTA
5. GTTGTCAA
6. ATTTGTCG
7. CCTTGCGA
8. TAGCAGGA

Data returned:
[-0.325, 0.168, -0.0206, 0.215, 0.0641, 0.451, 0.028, 0.0461]

Look at each sequence and report its PBM E-score.
1. ATCGCGTA
2. CGCTACCG
3. GCCGACAA
4. ACCTAAGG
5. ACAGTGCG
6. GACTCCTC
7. GCGTCTGA
8. GGATGTTA

Data returned:
1: -0.176; 2: 0.00385; 3: 0.117; 4: -0.14; 5: -0.181; 6: -0.149; 7: -0.101; 8: -0.0664
